testTarget: Carbonic anhydrase 9 (Homo sapiens, UniProt Q16790)
assayName: Inhibition of recombinant human carbonic anhydrase 9 preincubated for 15 mins by phenol red dye based stopped flow CO2 hydration assay
readoutType: Ki (nM)
Number in nM, nothing else.

Please review the entries below; each comes with its answer.
NS(=O)(=O)c1ccc(OCC(O)C[Te]c2ccc3ccccc3c2)cc1 (stereo not drawn)    6.4
COc1ccc([Te]CC(O)COc2ccc(S(N)(=O)=O)cc2)cc1 (stereo not drawn)    7.8
CC[Te]CC(O)COc1ccc(S(N)(=O)=O)cc1 (stereo not drawn)    40.7
CCCC[Te]CC(O)COc1ccc(S(N)(=O)=O)cc1 (stereo not drawn)    333
Cc1ccccc1[Te]CC(O)COc1ccc(S(N)(=O)=O)cc1 (stereo not drawn)    9.5
Cc1ccc([Te]CC(O)COc2ccc(S(N)(=O)=O)cc2)cc1 (stereo not drawn)    118
NS(=O)(=O)c1ccc(OCC(O)C[Te]c2ccccc2)cc1 (stereo not drawn)    14.8

Now let's try a different one.
Form field Ki, entry NS(=O)(=O)c1ccc(OCC(O)C[Te]CC(O)COc2ccc(S(N)(=O)=O)cc2)cc1 (stereo not drawn) : 809

Hey, just so you know, these numbers are from ChEMBL document CHEMBL4359874.
